- Read-out: Tumor necrosis factor (Homo sapiens)
- Measurement Description: BSK_LPS_TNFa: BioMAP Diversity Plus: LPS Assay for Tumour Necrosis Factor alpha (TNFa) Biomarker Activity (AID 2283085);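 as to AC50: TNFa protein level quantified by ELISA in the co-culture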
- Reported Conditions: primary human HUVEC with PBMC; actives raise or lower the signal
The source made the active and inactive calls. The calls were made as follows: active = hit-call score of the fitted dose curve at least 0.9, where 1 is the maximum; inactive = score below 0.9.
Measurement Label: AC50

[[record]]
compound = "COP(=O)(OC)C(O)C(Cl)(Cl)Cl (centres undefined)"
measurement_label = "AC50"
result_value = "inactive"

[[record]]
compound = "CCNc1nc(Cl)nc(NC(C)(C)C#N)n1"
measurement_label = "AC50"
result_value = "3.97 µM (active)"

[[record]]
compound = "CCc1cccc(CC)c1N(COC)C(=O)CCl"
measurement_label = "AC50"
result_value = "1.31 µM (active)"

[[record]]
compound = "CC(Oc1cccc(Cl)c1)C(=O)O (centres undefined)"
measurement_label = "AC50"
result_value = "inactive"

[[record]]
compound = "CCCOc1nn(C(=O)NS(=O)(=O)c2ccccc2C(=O)OC)c(=O)n1C"
measurement_label = "AC50"
result_value = "inactive"

[[record]]
compound = "CCc1cccc(C)c1N(C(=O)CCl)C(C)COC (centres undefined)"
measurement_label = "AC50"
result_value = "13.1 µM (active)"

[[record]]
compound = "CCC(=NOC/C=C/Cl)C1=C(O)CC(C2CCOCC2)CC1=O (centres undefined)"
measurement_label = "AC50"
result_value = "inactive"

[[record]]
compound = "CCCSP(=O)(OCC)Oc1ccc(Br)cc1Cl (centres undefined)"
measurement_label = "AC50"
result_value = "35.3 µM (active)"

[[record]]
compound = "COP(=O)(OC)OC(Br)C(Cl)(Cl)Br (centres undefined)"
measurement_label = "AC50"
result_value = "28.9 µM (active)"

